Exercise: state measured Biodistribution: Liver for each of the compounds provided.
- testSummary: In vivo biodistribution in mice
- Design: species or system normal CD-1 male mice
- reportedConditions: iv, 2 min post injection
The response must be a number in % dose/g with no trailing unit.

GET /values?readout=Biodistribution: Liver&item= O=C([O-])CN(CCN(CC(=O)[O-])Cc1cc(CCC(=O)O)ccc1[O-])Cc1cc(CCC(=O)O)ccc1[O-].[68Ga+3] [[^68Ga]HBED-CC, reference compound]
1.75

GET /values?readout=Biodistribution: Liver&item= O=C(O)CN1CCN(CC(=O)O)CCN(CC(=O)NC(P(=O)(O)O)P(=O)(O)O)CCN(CC(=O)O)CC1.[68Ga] [[^68Ga]BPAMD, reference compound]
1.92

GET /values?readout=Biodistribution: Liver&item= O=C([O-])CN(CCN(CC(=O)[O-])Cc1cc(CCC(=O)N[C@@H](CCC(=O)O)C(=O)O)ccc1[O-])Cc1cc(CCC(=O)NC(P(=O)(O)O)P(=O)(O)O)ccc1[O-].[68Ga+3] [[^68Ga]1f]
2.43

###

Exercise: state measured Biodistribution: Skin for each of the compounds provided.
- testSummary: In vivo biodistribution in mice
- Set-up: species or system normal CD-1 male mice
- reportedConditions: iv, 30 min (0.5 hr) post injection
The response must be a number in % dose/g with no trailing unit.

GET /values?readout=Biodistribution: Skin&item= O=C([O-])CN(CCN(CC(=O)[O-])Cc1cc(CCC(=O)N[C@@H](CCC(=O)O)C(=O)O)ccc1[O-])Cc1cc(CCC(=O)NC(P(=O)(O)O)P(=O)(O)O)ccc1[O-].[68Ga+3] [[^68Ga]1f]
0.49

GET /values?readout=Biodistribution: Skin&item= O=C([O-])CN(CCN(CC(=O)[O-])Cc1cc(CCC(=O)NC(P(=O)(O)O)P(=O)(O)O)ccc1[O-])Cc1cc(CCC(=O)NCCNC(=O)CN2CCN(CC(=O)O)CCN(CC(=O)O)CCN(CC(=O)O)CC2)ccc1[O-].[68Ga+3] [[^68Ga]1h]
0.39

GET /values?readout=Biodistribution: Skin&item= O=C([O-])CN(CCN(CC(=O)[O-])Cc1cc(CCC(=O)O)ccc1[O-])Cc1cc(CCC(=O)O)ccc1[O-].[68Ga+3] [[^68Ga]HBED-CC, reference compound]
0.64

GET /values?readout=Biodistribution: Skin&item= O=C([O-])CN(CCN(CC(=O)[O-])Cc1cc(CCC(=O)NC(P(=O)(O)O)P(=O)(O)O)ccc1[O-])Cc1cc(CCC(=O)NC2C(O)OC(CO)C(O)C2O)ccc1[O-].[68Ga+3] (stereo not drawn) [[^68Ga]1b]
0.60

GET /values?readout=Biodistribution: Skin&item= [18F-].[Na+] [[^18F]NaF, reference compound]
0.51

GET /values?readout=Biodistribution: Skin&item= C[C@H](NC(=O)CCc1ccc([O-])c(CN(CCN(CC(=O)[O-])Cc2cc(CCC(=O)NC(P(=O)(O)O)P(=O)(O)O)ccc2[O-])CC(=O)[O-])c1)C(=O)O.[68Ga+3] [[^68Ga]1d]
0.42

###

- testSummary: In vivo biodistribution in mice
- Design: species or system normal CD-1 male mice
- reportedConditions: iv, 60 min (1 hr) post injection
- Experimental: Biodistribution experiments were performed by intravenously administering ^68Ga labeled 1a-h, 2, 3, BPAMD, and [^18F]NaF into normal, healthy male CD-1 mice (25-30 g). The injection activity was 20-30 μCi/animal. […] Organs of interest were harvested, weighed, and counts of radioactivity were measured by a gamma counter. The biodistribution of each sample was calculated as a percentage of the injected dose per gram of wet tissue weight (% ID/g). […]
reportedEndpoint: Biodistribution: Lung

GET /values?readout=Biodistribution: Lung&item= O=C([O-])CN1CCN(CC(=O)[O-])CCN(CC(=O)NCCNC(=O)CCc2ccc(O)c(CN(CCN(CC(=O)O)Cc3cc(CCC(=O)NC(P(=O)(O)O)P(=O)(O)O)ccc3O)CC(=O)O)c2)CCN(CC(=O)[O-])CC1.[177Lu+3] [[^177Lu]1h]
0.20 ± 0.05 % dose/g

GET /values?readout=Biodistribution: Lung&item= O=C([O-])CN(CCN(CC(=O)[O-])Cc1cc(CCC(=O)NC(P(=O)(O)O)P(=O)(O)O)ccc1[O-])Cc1cc(CCC(=O)O)ccc1[O-].[68Ga+3] [[^68Ga]1a]
0.21 ± 0.03 % dose/g

GET /values?readout=Biodistribution: Lung&item= O=C([O-])CN(CCN(CC(=O)[O-])Cc1cc(CCC(=O)N[C@@H](CCC(=O)O)C(=O)O)ccc1[O-])Cc1cc(CCC(=O)NC(P(=O)(O)O)P(=O)(O)O)ccc1[O-].[68Ga+3] [[^68Ga]1f]
0.21 ± 0.01 % dose/g

Just for reference, patent US10253052B2 is where these values come from.
